# IC50 values compiled below
target: HLA-DRβ1*0401 (Homo sapiens, UniProt P01903+P01911, A100K/A169T/F76Y/I96L/K127E/L162R/M171V/N62H/P40V/Q125Y/R42H/S133A/S149N/S66Y/V115G/V209L/W38E); construct: endogenous in cells; host or cells: IHW09025 homozygous lymphoblastoid B-cell line (IHWG); assay: In vitro HLA-DRβ1 binding assay (competitive ELISA, biotinylated control peptide displacement); conditions: DRβ1*0401; 50% displacement of biotinylated HA; 4.2 to 250 μM serial dilutions; second order exponential decay fit
No end group written: not given here.
Output spec: scalar in µM, unitless text.

Answered examples (3):
Looking for the measured IC50 of KRLVAHFEFATTPDD [Peptide 39122] , can you help?
58.9

What do you get for EECFLQGFNLSGKKE [Peptide 39113] ?
7.36

Next record, please: RKNYELLPNNCFEQV [Peptide 39112]
7.26

Moving on to another sequence below.
For the sequence YNKIFYARVPQRIYQ [Peptide 39114] , what IC50 is on record?
43.2

---

target: HLA-DRβ1*1101 (Homo sapiens, UniProt P01903+P01911, A100R/A169T/A87E/I96F/K41T/L162R/M171V/P40S/Q125H/Q178H/Q39Y/Q99D/R42S/S66Y/T262R/V115G/W38E); construct: endogenous in cells; host or cells: IHW09043 homozygous lymphoblastoid B-cell line (IHWG); assay: biochemical; assay type: binding; conditions: 24 h; read-out: Binding percentage
Sequence (P01903 26-254, other chains not shown): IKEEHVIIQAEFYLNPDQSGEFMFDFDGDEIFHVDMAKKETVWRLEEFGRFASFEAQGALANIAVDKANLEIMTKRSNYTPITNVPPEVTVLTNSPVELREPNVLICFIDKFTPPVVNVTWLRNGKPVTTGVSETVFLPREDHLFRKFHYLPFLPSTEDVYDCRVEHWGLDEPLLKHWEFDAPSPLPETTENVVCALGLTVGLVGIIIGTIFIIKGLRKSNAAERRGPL
No end group written: not given here.
Decide by inhibition at 250 µM: equal to or exceeding 50% means rule met, less means rule not met.

Worked examples follow.
Form field: inhibition at 250 µM at least 50%? Entry: KRLVAHFEFATTPDD [Peptide 39122]
rule met

Check EECFLQGFNLSGKKE [Peptide 39113] too.
rule met

One more sequence: GCDFTKNTSPLFTKG [Peptide 39119]
rule not met

Quick one: LVEYLHGAAAIVKRK [Peptide 39118]
rule not met

Could you do the same for LTDLVMDHYNKIFYA [Peptide 39120] , please?
rule not met

Continuing:
Does the reported inhibition at 250 µM for RKNYELLPNNCFEQV [Peptide 39112] fall at or above the 50% mark?
rule met

---

Reported inhibition at 250 µM values follow for various sequences
biological target: HLA-DRβ1*1302 (Homo sapiens, UniProt P01903+P01911, A100E/A169T/K41T/L162R/M171V/P40S/Q125H/Q178H/Q39Y/Q99D/R42S/S66N/T262R/V115G/W38E/Y61H); experiment: biochemical; assay type: binding; conditions: 24 h, 0.1 μM purified molecule, 5 μM biotinylated TT, 250 μM test peptide, 24 h RT, OD 405 nm, read-out: Binding percentage
Sequence (P01903 26-254 limits assumed, other chains not shown): as the sequence (P01903 26-254, other chains not shown) above
No end group written: not given here.
Give your result in % as a bare value.

Below, each entry is followed by its recorded inhibition at 250 µM result.
Please look up its inhibition at 250 µM: RKNYELLPNNCFEQV [Peptide 39112]
14.1

Try GCDFTKNTSPLFTKG [Peptide 39119] next.
92.2

Repeat for the following sequence: LGIIEVLIPSLPKKI [Peptide 39117]
95.4

---
What measured inhibition at 250 µM goes with EECFLQGFNLSGKKE [Peptide 39113] ?
9.28

Repeat for the following sequence: LVEYLHGAAAIVKRK [Peptide 39118]
31.7

What do we get for KRLVAHFEFATTPDD [Peptide 39122] ?
71.1

Record: LTDLVMDHYNKIFYA [Peptide 39120]
86
